experiment: Acute toxicity; details: mouse, in vivo, iv
Reported Property: LD50

// query Can you share its LD50? I mean this compound: CCCC[C@@]1(OC(=O)CCC(=O)O)CC[C@]2(CC[C@H](C)[C@@H](C/C=C(C)/C=C/[C@H](O)[C@@H](C)/C=C/C(=O)O)O2)O[C@H]1/C=C/C(C)=C/C(=O)O
// result ≥ 100 mg/kg
